Test system: SK-MEL-5 melanoma
Experiment: NCI tumour cell line growth inhibition, 48 h
The following compounds are shown together with reported TGI values.
Supply the numeric figure in µM, leaving out any unit text.

SMI: COc1cccc(-c2cc(=O)c3cc(OC)ccc3[nH]2)c1
ASSAYED_TARGET: SK-MEL-5 melanoma
QUANTITY_UNIT: µM
TGI: 2.57

In the following, a different compound is considered.
Briefly, TGI measured for "COC(=O)CCC(=O)NC1=C(Nc2ccc(OC)cc2)C(=O)c2ccccc2C1=O" : 3.57

---

System: UACC-257 melanoma
Assay: NCI tumour cell line growth inhibition, 48 h
PROPERTY_NAME: TGI

In the examples that follow, each entry is paired with its recorded TGI.
MOLECULE: COC(=O)[C@@H](C)C[C@H](Cc1ccccc1)NC(=O)c1csc(CC[C@H](C(C)C)N(C)C(=O)[C@@H](NC(=O)[C@H]2CCCCN2C)C(C)C)n1
TGI: > 33.3 µM

MOLECULE: CC[C@H](O)[C@H](C)C=C1SCCCS1
TGI: > 100 µM

MOLECULE: CCOC(=O)c1ccc(Nc2c3c(nc4ccccc24)CCCC3)cc1
TGI: > 100 µM

MOLECULE: Cc1cc(=O)oc2cc(OC(=O)N(C)C)c(Cl)cc12
TGI: > 100 µM

MOLECULE: CC(=O)OCCOCn1c2c(c(=S)[nH]c1=O)CCC2
TGI: > 100 µM

MOLECULE: Cc1nn(-c2nc3ccccc3[nH]2)c(N)c1-c1ccc(Cl)cc1
TGI: 55.8 µM

MOLECULE: CCOC(=O)c1cc(-c2cc(OC)c(OC)c([N+](=O)[O-])c2)c([N+](=O)[O-])n1C
TGI: > 10 µM

MOLECULE: Cc1ccc(S(=O)(=O)NC(=O)C2C(=O)CC3(CCCCC3)CC2=O)cc1
TGI: 78.1 µM

MOLECULE: COc1cc2c(cc1OC)C(C(CO)CO)N(CC(O)CCl)CC2 (stereo unspecified)
TGI: > 100 µM

MOLECULE: Clc1nc(Cl)c2ncn(Cc3cccc(Cn4cnc5c(Cl)nc(Cl)nc54)c3)c2n1
TGI: 17.2 µM

Briefly, TGI measured for "CC[C@]12C=CCN3CC[C@@]4(c5cc(Br)c(OC)cc5N(C)[C@H]4[C@@](O)(C(=O)NN)[C@@H]1O)[C@@H]32" : > 100 µM

Briefly, TGI measured for CC(NC(=O)C(C)NC(=O)C(N)CCP(C)(=O)O)C(=O)O (stereo unspecified) : > 100 µM

Briefly, TGI measured for "C[C@]12CC[C@H]3[C@@H](CC=C4C[C@@H](N5CCCC5)CC[C@@]43C)[C@@H]1C[C@H](N1CCOCC1)[C@@H]2O" : > 100 µM

Briefly, TGI measured for "CC1(C)N=C(C(N)=O)c2ncn(N)c2N1" : > 100 µM

Briefly, TGI measured for "O=C(/C=C/c1ccc(O)cc1)c1ccc2c(c1)OCO2" : 33.6 µM

Briefly, TGI measured for "COC(=O)c1c2c(c[n+]([O-])c1C)C(=O)C=CC2=O" : 5.54 µM

---

The following compounds are shown together with reported TGI values.
Tested on: NCI/ADR-RES ovarian
Test: NCI tumour cell line growth inhibition, 48 h

In the examples that follow, each entry is paired with its recorded TGI.
COMPOUND: COC(=O)[C@@H](C)C[C@H](Cc1ccccc1)NC(=O)c1csc(CC[C@H](C(C)C)N(C)C(=O)[C@@H](NC(=O)[C@H]2CCCCN2C)C(C)C)n1
TGI: > 33.3 µM

COMPOUND: Nc1ccccc1C(=O)CC1OC(=O)c2ccccc21 (stereo not drawn)
TGI: > 100 µM

In the following, a different compound is considered.
Briefly, TGI measured for "COC(=O)/C(=C\Nc1cccc(C)n1)S(=O)(=O)c1ccc(C)cc1" : > 100 µM

---

Tested on: OVCAR-5 ovarian
Test: NCI tumour cell line growth inhibition, 48 h
The following molecules are shown together with reported TGI values.

In the examples that follow, each entry is paired with its recorded TGI.
SMI: CC(C)=CC(=O)C/C(=N\NC(N)=S)C(=O)Nc1ccc(Cl)cc1
TGI: > 100 µM

SMI: Cn1c(=O)c(C(=O)Nc2nc(C34CC5CC(CC(C5)C3)C4)cs2)c(O)c2ccccc21
TGI: > 100 µM

Briefly, TGI measured for "O=C(NCCC1([N+](=O)[O-])CCN(C(=O)c2ccccc2)CC1)c1ccccc1" : > 100 µM

---

System: CCRF-CEM leukemia
Experiment: NCI tumour cell line growth inhibition, 48 h
The following compounds are shown together with reported TGI values.

COMPOUND: CC1=Nc2nc(Cl)cn2C(=O)C1(Cl)Cl
TGI: > 10 µM
--
COMPOUND: O=S(=O)(O)c1cc(O)c2c(N=Cc3ccccc3O)cc(S(=O)(=O)O)cc2c1
TGI: > 100 µM
--
COMPOUND: FC(F)c1nc2ccccc2n1-c1nc(N2CCOCC2)nc(N2CCOCC2)n1
TGI: > 100 µM
--
COMPOUND: CC(=O)OCCCOCn1c(Cc2ccccc2)c(C)c(=O)[nH]c1=O
TGI: > 100 µM

Briefly, TGI measured for "Oc1ccc(-c2nc(-c3cccnc3)c(-c3ccc(Cl)cc3)[nH]2)cc1O" : > 100 µM

Briefly, TGI measured for NC(CCCC(N)P(=O)(O)c1ccccc1)P(=O)(O)c1ccccc1 (stereo unspecified) : > 261 µM

---

Tested on: MALME-3M melanoma
Assay: NCI tumour cell line growth inhibition, 48 h
PROPERTY_NAME: TGI

COMPOUND: Nc1nc(Cl)c(N)c(NCC2(CO)CC(OCc3ccccc3)C2)n1 (stereo not drawn)
ASSAYED_TARGET: MALME-3M melanoma
TGI: > 100 µM
//
COMPOUND: COc1cc2c(cc1OC)C(C(CO)CO)N(CC(O)CCl)CC2 (stereo not drawn)
ASSAYED_TARGET: MALME-3M melanoma
TGI: > 100 µM

Briefly, TGI measured for "COc1ccc(OC)c2c1CC(C(=O)O)(C(=O)O)CC2=O" : > 100 µM

---

Test system: MCF7 breast
Test: NCI tumour cell line growth inhibition, 48 h
The following molecules are shown together with reported TGI values.

MOLECULE: FC(F)c1nc2ccccc2n1-c1nc(N2CCOCC2)nc(N2CCOCC2)n1
VALUE_MEASURED: > 62.7 µM
--
MOLECULE: CC(=O)OCCOCn1c2c(c(=S)[nH]c1=O)CCC2
VALUE_MEASURED: > 100 µM
--
MOLECULE: CN(C)CCNC(=O)c1cccc2c(NCCN(C)C)c3ccccc3nc12
VALUE_MEASURED: 12.8 µM
--
MOLECULE: C1CCC2(CC1)O[C@@H]1[C@@H](O2)[C@@H](O[C@H]2O[C@@H]3COC4(CCCCC4)O[C@H]3[C@@H]3OC4(CCCCC4)O[C@@H]23)O[C@@H]2COC3(CCCCC3)O[C@@H]12
VALUE_MEASURED: > 100 µM
--
MOLECULE: CC[C@H](O)[C@H](C)C=C1SCCCS1
VALUE_MEASURED: > 100 µM

Briefly, TGI measured for "Cc1nn(-c2nc3ccccc3[nH]2)c(N)c1-c1ccc(Cl)cc1" : > 100 µM

Briefly, TGI measured for "CCSc1sc(=Nc2ccc(N=c3sc(C)c(SC)s3)cc2)sc1-c1ccc(C)cc1" : > 100 µM

Briefly, TGI measured for "C#CCOc1cccc(-c2ncnc3cc(NC(=O)CCl)ccc23)c1" : 1.75 µM

Briefly, TGI measured for S=C(NC1=NCC(CN2CCN(c3ccccc3)CC2)O1)Nc1ccccc1 (centres undefined) : > 100 µM

---

System: MDA-MB-231 breast
Assay: NCI tumour cell line growth inhibition, 48 h; in the data active means GI50 below about 0.43 µM; inactive means the rest
Pick from Y for active, N for inactive when you respond.

Below are worked cases with known answers.
SMI: CCCNNC(=O)/C=C/c1ccc(CNCCc2c(C)[nH]c3ccccc23)cc1
LABEL_VALUE: Y
//
SMI: COc1ccc2c(c1)C(=O)c1c-2n(CCCN=[N+]=[N-])c(=O)c2cc(OC)c(OC)cc12
LABEL_VALUE: N

# outcome recorded in this test, key = "CNC(=O)c1ccc(N2CCN(Cc3ccc4nc(C)c(=O)[nH]c4c3F)CC2)c(F)n1"
N

# outcome recorded in this test, key = "CO[C@H]1/C=C/O[C@@]2(C)Oc3c(C)c(O)c4c(c3C2=O)C(=O)C(/C=N/N(c2ccccc2)c2ccccc2)=C(NC(=O)/C(C)=C\C=C\[C@H](C)[C@H](O)[C@@H](C)[C@@H](O)[C@@H](C)[C@H](OC(C)=O)[C@@H]1C)C4=O"
N

---

Test system: OVCAR-8 ovarian
Assay: NCI tumour cell line growth inhibition, 48 h
The following compounds are shown together with reported TGI values.

COMPOUND: [Cl-].[O-]/N=C(\c1ccccc1)c1ccccn1.[O-]/N=C(\c1ccccc1)c1ccccn1.[O-]/N=C(\c1ccccc1)c1ccccn1.[Sm+3]
TGI: > 100 µM

COMPOUND: CC(C)CC(NC(=O)c1cccc(O)c1O)C(=O)NCc1cc(CNC(=O)C(CC(C)C)NC(=O)c2cccc(O)c2O)cc(CNC(=O)C(CC(C)C)NC(=O)c2cccc(O)c2O)c1 (centres undefined)
TGI: > 100 µM

Briefly, TGI measured for "COC(=O)/C(=C\Nc1cccc(C)n1)S(=O)(=O)c1ccc(C)cc1" : > 100 µM

Briefly, TGI measured for "COC(=O)CCC(=O)NC1=C(Nc2ccc(OC)cc2)C(=O)c2ccccc2C1=O" : 75.6 µM

Briefly, TGI measured for "CCc1cccc(C)c1NC(=O)c1sc2nc3c(cc2c1N)CCCCC3" : > 100 µM

Briefly, TGI measured for "CN(C)CCNC(=O)c1cccc2c(NCCN(C)C)c3ccccc3nc12" : 12.4 µM

Briefly, TGI measured for "O=C(/N=C/c1c(O)c2ccccc2oc1=O)Nc1ccccc1" : > 100 µM

Briefly, TGI measured for "CC(=O)OCCCOCn1c(Cc2ccccc2)c(C)c(=O)[nH]c1=O" : > 100 µM

Briefly, TGI measured for "CC(=O)[O][Ga]([Cl])[O]C(C)=O" : > 100 µM
